Please respond with reported HC50 (hemolytic concentration) for every item in the list.
test system: pig erythrocytes; assay: Hemolytic activity on pig erythrocytes; assay type: cell-based; conditions: 1 h at 37 °C, 6.25–100 µM, absorbance 570 nm, non-linear fit, n ≥ 3, n.c. (100) = not convergent at 100 µM
No end group written: not given here.
Reply with a number, then the unit it belongs to.

Request: What does the data say about its HC50 (hemolytic concentration)? Entry: IFGAIWSGIKSLF-NH2 [D1]
Result: 48 µM

Request: Would you mind telling me what HC50 (hemolytic concentration) value was observed for ILSAIWSGIKGLL-NH2 [Uy17] ?
Result: 138.40 µM

Request: I am curious: what HC50 (hemolytic concentration) value has been reported for FPFLKLSLKIPKSAIKSAIKRL-NH2 [D10] ?
Result: 1726 µM

Request: Any idea what HC50 (hemolytic concentration) was measured for GFWGKLWEGVKSAI-NH2 [Um3] ?
Result: 126.2 µM

Request: State the recorded HC50 (hemolytic concentration) for this entry: ISQSDAILSAIWSGIKSLF-NH2 [Um2]
Result: 129 µM

Request: Find the recorded HC50 (hemolytic concentration) belonging to GFWGKLWEGVKNAIKKK-NH2 [D11] and report it.
Result: 1110 µM

Request: Please give the measured HC50 (hemolytic concentration) for this substance: IWSAIWSGIKGLL-NH2 [UyCT5]
Result: 20.59 µM
